Values were extracted from paper PMC5268738.

Molecular target: T1, human Mad1^CTD (human, UniProt Q9Y6D9 597-718)
T1 chain: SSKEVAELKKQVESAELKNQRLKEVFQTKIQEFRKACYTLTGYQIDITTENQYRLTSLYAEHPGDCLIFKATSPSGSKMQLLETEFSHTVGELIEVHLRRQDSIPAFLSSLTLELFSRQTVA
Assay: ITC
Square brackets hold non-standard residues; d marks the D form. Ends that are not written are not given here. pT = C[C@@H](OP(=O)(O)O)[C@H](N)C(=O)O; pS = N[C@@H](COP(=O)(O)O)C(=O)O
metricName: pKd
Please treat pKd as minus the base-10 logarithm of the molar concentration.

- CKVQPSP[pT]VHTKEALGFIMNMFQA [human Bub1 CM phospho-peptide pT461]: 4.80

Here's the next entry for you.
So what's the measured pKd for this one? CKVQP[pS]P[pT]VHTKEALGFIMNMFQA [human Bub1 CM phospho-peptide pS459-pT461]
5.51
